# experimental-system: bovine serum albumin (BSA) (Bos taurus, UniProt P02769)
# Sequence (P02769 25-607): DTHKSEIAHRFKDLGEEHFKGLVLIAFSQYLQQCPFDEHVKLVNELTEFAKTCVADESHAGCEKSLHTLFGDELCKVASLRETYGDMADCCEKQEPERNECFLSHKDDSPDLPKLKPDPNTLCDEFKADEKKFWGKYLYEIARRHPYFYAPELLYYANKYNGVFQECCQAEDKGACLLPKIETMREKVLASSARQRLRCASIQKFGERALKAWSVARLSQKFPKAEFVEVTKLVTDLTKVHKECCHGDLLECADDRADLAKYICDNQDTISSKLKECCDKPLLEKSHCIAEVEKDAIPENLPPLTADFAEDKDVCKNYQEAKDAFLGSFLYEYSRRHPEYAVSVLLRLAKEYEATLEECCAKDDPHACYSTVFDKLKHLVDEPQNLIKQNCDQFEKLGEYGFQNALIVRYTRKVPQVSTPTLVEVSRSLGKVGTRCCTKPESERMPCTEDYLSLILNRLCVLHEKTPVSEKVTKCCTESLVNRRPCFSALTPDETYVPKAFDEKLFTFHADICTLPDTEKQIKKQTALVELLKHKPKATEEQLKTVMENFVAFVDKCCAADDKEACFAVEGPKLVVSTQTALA
# assay-text: Label-free differential scanning fluorimetry, equilibrium-based binding model near BSA melting temperature
Field: pKd. Provide a value for each of the compounds that follow.
Numbers only, as −log10 of the molar value.

Before answering, review these 2 worked examples.
- O=C(O)C(F)(OC(F)(F)C(F)(F)C(F)(F)F)C(F)(F)F (centres unmarked) [GenX, Perfluoro-2-methyl-3-oxahexanoic acid]: 4.30
- CCCCCCCCCC(=O)O [DA, Decanoic acid]: 4.56

Parameter requested: pKd. Apply to each item below.
1. O=S(=O)(O)C(F)(F)C(F)(F)C(F)(F)C(F)(F)C(F)(F)C(F)(F)F [PFHxS, Sodium perfluorohexanesulfonate]
2. O=C(O)C(F)(F)C(F)(F)C(F)(F)C(F)(F)C(F)(F)C(F)(F)C(F)(F)F [PFOA, Perfluorooctanoic acid]
3. CCCCCCCCC(=O)O [NA, Nonanoic acid]

Given back:
4.97
4.39
6.47
